system: NF-κ B; assay: Inhibitory activity of NF-κ B activation, luciferase reporter assay in HepG2 under TNF-α stimulation; format: cell-based, human; settings: 10 μg/mL; HepG2, TNF-α (40 ng/ml), 4 hours
Kindly state Inhibitory Ratio of NF-κ B Activation(%) Drug Concentration 10 μg/mL for each of the entries shown.
Numbers only, in %.

# per-item lookup of Inhibitory Ratio of NF-κ B Activation(%) Drug Concentration 10 μg/mL; items listed below
1. CSc1ccc(C(F)(F)F)cc1NC(=O)c1cc(Cl)ccc1O
2. O=C(Nc1cc(F)ccc1F)c1cc(Cl)ccc1O
3. O=C(Nc1cc(C(F)(F)F)cc(C(F)(F)F)c1)c1cc(C(F)(F)C(F)(F)F)ccc1O

1: 99.1; 2: 93.4; 3: 95.4

# per-item lookup of Inhibitory Ratio of NF-κ B Activation(%) Drug Concentration 10 μg/mL; items listed below
1. O=C(Nc1cc(Cl)cc(Cl)c1)c1cc(Br)cc(Br)c1O
2. Cc1ccc(C)c(NC(=O)c2cc(Cl)ccc2O)c1

1. 95.1
2. 97.1

###

Kindly state inhibition at 10 µg/mL for each of the entries shown.
tested on: NF-κ B; assay: Inhibitory activity of NF-κ B activation, luciferase reporter assay in HepG2 under TNF-α stimulation; type: cell-based, human; conditions: Homo sapiens; 10 μg/mL; HepG2, TNF-α (40 ng/ml), 4 hours; read-out: Inhibitory Ratio of NF-κ B Activation(%) Drug Concentration 10 μg/mL
One number for each entry, in %.

Here is how some molecules turned out for inhibition at 10 µg/mL.
O=C(Nc1cc(C(F)(F)F)cc(C(F)(F)F)c1)c1cc(C#Cc2ccccc2)ccc1O [Compound No. 22]: 97.1
CC(C)(C)c1nc(NC(=O)c2cc(Br)ccc2O)sc1N1CCN(c2ccccc2)CC1 [Compound No. 207]: 95.9
CC(C)c1nc(NC(=O)c2cc(Br)ccc2O)sc1-c1ccccc1 [Compound No. 197]: 96.1

# per-item lookup of inhibition at 10 µg/mL; items listed below
1. CC(C)(C)c1csc(NC(=O)c2cc(Br)ccc2O)n1 [Compound No. 185]
2. CC(C)(C)c1nc(NC(=O)c2cc(Cl)ccc2O)sc1C#N [Compound No. 188]
3. O=C(Nc1cc(C(F)(F)F)cc(C(F)(F)F)c1)c1cc(C(=O)N2CCC(Cc3ccccc3)CC2)ccc1O [Compound No. 40]
4. Cc1nc(NC(=O)c2cc(Br)ccc2O)sc1-c1cccc(C(F)(F)F)c1 [Compound No. 194]

1. 95.2
2. 92.4
3. 96
4. 71.7

###

system: NF-κ B; experiment: Inhibitory activity of NF-κ B activation, luciferase reporter assay in HepG2 under TNF-α stimulation; format: cell-based, human; settings: 10 μg/mL; HepG2, TNF-α (40 ng/ml), 4 hours
Kindly state Inhibitory Ratio of NF-κ B Activation(%) Drug Concentration 10 μg/mL for each of the entries shown.
Give bare numbers, in %.

COc1ccc(C(=O)Nc2cc(C(F)(F)F)cc(C(F)(F)F)c2)c(O)c1: 89.8
O=C(Nc1cc(C(F)(F)F)ccc1Cl)c1cc([N+](=O)[O-])ccc1O: 98.0

# per-item lookup of Inhibitory Ratio of NF-κ B Activation(%) Drug Concentration 10 μg/mL; items listed below
1. O=C(Nc1cc(Cl)cc(Cl)c1)c1cc(Cl)ccc1O
2. O=C(Nc1cc(C(F)(F)F)cc(C(F)(F)F)c1)c1cc(Br)ccc1O

96.8
98.6
